Target: Acetylcholine receptor subunit delta (Homo sapiens, UniProt Q07001)
Sequence (Q07001 whole entry): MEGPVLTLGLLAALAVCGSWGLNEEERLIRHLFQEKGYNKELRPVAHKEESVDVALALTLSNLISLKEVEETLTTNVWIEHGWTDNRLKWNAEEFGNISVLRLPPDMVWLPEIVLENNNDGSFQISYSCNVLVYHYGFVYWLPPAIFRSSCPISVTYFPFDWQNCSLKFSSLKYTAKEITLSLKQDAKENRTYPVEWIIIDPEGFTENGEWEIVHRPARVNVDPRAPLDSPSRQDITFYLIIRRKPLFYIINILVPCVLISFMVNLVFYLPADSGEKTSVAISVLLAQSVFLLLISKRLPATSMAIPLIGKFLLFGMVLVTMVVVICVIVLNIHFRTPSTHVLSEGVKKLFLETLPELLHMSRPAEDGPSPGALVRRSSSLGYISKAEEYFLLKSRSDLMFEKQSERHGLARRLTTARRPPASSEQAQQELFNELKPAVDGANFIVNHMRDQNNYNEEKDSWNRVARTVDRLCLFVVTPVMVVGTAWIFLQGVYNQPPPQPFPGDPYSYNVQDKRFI
Test: Compound was evaluated for inhibitory activity against human embryonic muscle type Nicotinic acetylcholine receptor specifically delta-subunit expressed in TE-671 cell (at holding potential -50 mV)
Type: cell-based
Metric name: IC50 (µM)
Number only, in µM; omit the unit.

- Chemical string: "CCCC(=O)N[C@@H](Cc1ccc(O)cc1)C(=O)NCCCCCCCCCN"
  Observed measurement: 13.3
- Chemical string: "CCCC(=O)N[C@@H](Cc1ccc(O)cc1)C(=O)NCCCCCCCCCCCN"
  Observed measurement: 0.58
- Chemical string: "CCCC(=O)N[C@@H](Cc1ccc(O)cc1)C(=O)NCCCCCCCCCCN"
  Observed measurement: 8.66
- Chemical string: "CCCC(=O)N[C@@H](Cc1ccc(O)cc1)C(=O)NCCCCCCCCN"
  Observed measurement: 9.76
- Chemical string: "CCCC(=O)N[C@@H](Cc1ccc(O)cc1)C(=O)NCCCCCCCCCCCCN"
  Observed measurement: 1.53

Kindly review the next compound as well.
Query: Value lookup for IC50; key = CCCC(=O)N[C@@H](Cc1ccc(O)cc1)C(=O)NCCCCCCCN
Response: 10.5
